Ref: patent EP0041491B1

- Test system: vascular beta-adrenoceptors
- EXPERIMENTAL DETAILS: Experiment B: blockade of isoprenaline induced vasodilatation, i.v. infusion of test compound
- Format: in vivo
- CONDITION: i.v. infusion 12 minutes per dose, isoprenaline bolus 10 minutes after start, reserpine pretreated cats
Kindly state Blockade of isoprenaline induced effects Vasodilatation ED:50 for each of the entries shown.

Prompt line: Provide vascular beta-adrenoceptors Blockade of isoprenaline induced effects Vasodilatation ED:50 reading for CCOC(=O)CCc1ccc(OCC(O)CNC(C)C)c(OCC)c1 (stereo not drawn) [Ex. 22] .
Response line: 0.8 µmol/kg/min

Prompt line: Provide vascular beta-adrenoceptors Blockade of isoprenaline induced effects Vasodilatation ED:50 reading for CCOC(=O)CCc1ccc(OCC(O)CNC(C)C)c(Br)c1 (stereo not drawn) [Ex. 20] .
Response line: >6.4 µmol/kg/min

Prompt line: Provide vascular beta-adrenoceptors Blockade of isoprenaline induced effects Vasodilatation ED:50 reading for COC(=O)CCc1ccc(OCC(O)CNC(C)C)cc1 (stereo not drawn) [Ex. 1] .
Response line: >25.6 µmol/kg/min

Prompt line: Provide vascular beta-adrenoceptors Blockade of isoprenaline induced effects Vasodilatation ED:50 reading for CCOC(=O)CCCc1ccc(OCC(O)CNC(C)C)cc1 (stereo not drawn) [Ex. 7] .
Response line: >6.4 µmol/kg/min

Prompt line: Provide vascular beta-adrenoceptors Blockade of isoprenaline induced effects Vasodilatation ED:50 reading for CCCOC(=O)CCc1ccc(OCC(O)CNC(C)C)cc1 (stereo not drawn) [Ex. 5] .
Response line: >25.6 µmol/kg/min

Prompt line: Provide vascular beta-adrenoceptors Blockade of isoprenaline induced effects Vasodilatation ED:50 reading for COCCOC(=O)CCCc1ccc(OCC(O)CNC(C)C)cc1 (stereo not drawn) [Ex. 4] .
Response line: 2.3 µmol/kg/min

* * *

- EXPERIMENTAL DETAILS: Experiment A: plasma half life estimated by the method of Levy from time to 50% recovery of the blockade
- CONDITION: cat, iv
Classification field. Basis: half-life. Definitions: I = under 1 min, II = from 1 min up to 2 min, III = 2 min and over

Prompt line: Could you place CCOC(=O)CCCc1ccc(OCC(O)CNC(C)C)cc1 (centres unmarked) [Ex. 7] in its proper category? Many thanks.
Response line: III

Prompt line: Could you place CCOC(=O)CCc1ccc(OCC(O)CNC(C)C)c(F)c1 (centres unmarked) [Ex. 25] in its proper category? Many thanks.
Response line: I

Prompt line: Could you place COc1cc(CCC(=O)OC(C)C)ccc1OCC(O)CNC(C)C (centres unmarked) [Ex. 24] in its proper category? Many thanks.
Response line: III

Prompt line: Could you place CCOC(=O)CCc1ccc(OCC(O)CNC(C)C)c(Br)c1 (centres unmarked) [Ex. 20] in its proper category? Many thanks.
Response line: III

Prompt line: Could you place CCCOC(=O)CCc1ccc(OCC(O)CNC(C)C)cc1 (centres unmarked) [Ex. 5] in its proper category? Many thanks.
Response line: I

Prompt line: Could you place CCOC(=O)CCc1ccc(OCC(O)CNC(C)C)c(Cl)c1 (centres unmarked) [Ex. 23] in its proper category? Many thanks.
Response line: II

Prompt line: Could you place COCCOC(=O)CCCc1ccc(OCC(O)CNC(C)C)cc1 (centres unmarked) [Ex. 4] in its proper category? Many thanks.
Response line: II

Prompt line: Could you place CCOC(=O)CCc1ccc(OCC(O)CNC(C)C)c(OC)c1 (centres unmarked) [Ex. 21] in its proper category? Many thanks.
Response line: I

Prompt line: Could you place CC(C)NCC(O)COc1ccc(CCC(=O)OC(C)C)cc1 (centres unmarked) [Ex. 6] in its proper category? Many thanks.
Response line: III

* * *

Kindly state half-life for each of the entries shown.
- EXPERIMENTAL DETAILS: Experiment A: plasma half life estimated by the method of Levy from time to 50% recovery of the blockade
- CONDITION: cat, iv

Prompt line: Supply measured half-life of CCOC(=O)CCc1ccc(OCC(O)CNC(C)C)cc1 (stereo not drawn) in your reply.
Response line: 1 min

Prompt line: Supply measured half-life of COCCOC(=O)CCc1ccc(OCC(O)CNC(C)C)cc1 (stereo not drawn) in your reply.
Response line: 1.5 min

Prompt line: Supply measured half-life of CCOC(=O)CCc1ccc(OCC(O)CNC(C)C)c(OCC)c1 (stereo not drawn) in your reply.
Response line: 0.9 min

* * *

- Tested on: vascular beta-adrenoceptors
- EXPERIMENTAL DETAILS: Experiment B: blockade of isoprenaline induced vasodilatation, i.v. infusion of test compound
- Type: in vivo
- CONDITION: i.v. infusion 12 minutes per dose, isoprenaline bolus 10 minutes after start, reserpine pretreated cats
Kindly state Blockade of isoprenaline induced effects Vasodilatation ED:50 for each of the entries shown.

Prompt line: Supply measured Blockade of isoprenaline induced effects Vasodilatation ED:50 of COC(=O)CCc1ccc(OCC(O)CNC(C)C)c(OC)c1 (stereo not shown) in your reply.
Response line: 18.0 µmol/kg/min

Prompt line: Supply measured Blockade of isoprenaline induced effects Vasodilatation ED:50 of CCOC(=O)CCCc1ccc(OCC(O)CNC(C)C)c(Br)c1 (stereo not shown) in your reply.
Response line: >6.4 µmol/kg/min

Prompt line: Supply measured Blockade of isoprenaline induced effects Vasodilatation ED:50 of CCOC(=O)CCc1ccc(OCC(O)CNC(C)C)c(OC)c1 (stereo not shown) in your reply.
Response line: >6.4 µmol/kg/min

Prompt line: Supply measured Blockade of isoprenaline induced effects Vasodilatation ED:50 of CCOC(=O)CCc1ccc(OCC(O)CNC(C)C)cc1 (stereo not shown) in your reply.
Response line: 12.0 µmol/kg/min

Prompt line: Supply measured Blockade of isoprenaline induced effects Vasodilatation ED:50 of COCCOC(=O)CCc1ccc(OCC(O)CNC(C)C)cc1 (stereo not shown) in your reply.
Response line: >25.6 µmol/kg/min

Prompt line: Supply measured Blockade of isoprenaline induced effects Vasodilatation ED:50 of CC(C)NCC(O)COc1ccc(CCC(=O)OC(C)C)cc1 (stereo not shown) in your reply.
Response line: >6.4 µmol/kg/min

Prompt line: Supply measured Blockade of isoprenaline induced effects Vasodilatation ED:50 of CCOC(=O)CCc1ccc(OCC(O)CNC(C)C)c(F)c1 (stereo not shown) in your reply.
Response line: >6.4 µmol/kg/min
